Settings: 298.15 K; 101.33 kPa; Liquid
Reported Property: mass density (kg/m3)

>>> result_number("CC#N [acetonitrile]")
776.62
>>> result_number("C1CCOC1 [tetrahydrofuran]")
882.04

I: C1COCCO1 [1,4-dioxane]
II: CC(C)OC(C)C [diisopropyl ether]
Ask | Could you tell me which of these two has the smaller mass density figure? First: I Second: II Refer to your chosen entry by its label in the reply.
Reply | II
(II: 718.46 kg/m3, I: 1027.51 kg/m3)

---

Settings: 293.15 K; 101.33 kPa; Liquid
Reported Property: mass density (kg/m3)

>>> result_number("CC(C)OC(C)C")
723.67
>>> result_number("C1CCOC1 [tetrahydrofuran]")
887.52
>>> result_number("CC#N")
782.01
>>> result_number("C1COCCO1")
1033.16
